bioavailability listing for selected compounds.
# Experiment: Oral bioavailability in Sprague-Dawley rat at 3 mg/kg administered as single dose by LC/MS/MS analysis
# Assay type: ADME, organism-based
# Assay context: Sprague-Dawley, in vivo

[
  {
    "Smi": "COc1cc(N2CCN(C3CCN(c4cccc5cccnc45)CC3)CC2)c2ncccc2c1",
    "bioavailability, %": 27
  },
  {
    "Smi": "COc1cc(N2CCN(C3CCN(c4ccc(F)c5c(OC)cc(C(F)(F)F)nc45)CC3)CC2)c2ncccc2c1",
    "bioavailability, %": 60
  }
]

* * *

# Experiment: Tmax in Sprague-Dawley rat at 3 mg/kg, po administered as single dose by LC/MS/MS analysis
# Assay type: ADME, organism-based
# Set-up: dose 3 mg/kg, route oral
# Assay context: in vivo

[
  {
    "Smi": "COc1cc(N2CCN(C3CCN(c4cccc5cccnc45)CC3)CC2)c2ncccc2c1",
    "Unit abbrev": "h",
    "Tmax": 1
  },
  {
    "Smi": "COc1cc(N2CCN(C3CCN(c4ccc(F)c5cccnc45)CC3)CC2)c2ncccc2c1",
    "Unit abbrev": "h",
    "Tmax": 0.8
  },
  {
    "Smi": "COc1cc(N2CCN(C3CCN(c4ccc(F)c5c(OC)cc(C(F)(F)F)nc45)CC3)CC2)c2ncccc2c1",
    "Unit abbrev": "h",
    "Tmax": 2
  }
]

* * *

# Experiment: in vitro
# Assay context: rat, liver microsomes
# Description: Half life in rat liver microsomes at 1 uM after 20 mins
# half-life at 20 min, 1 µM per record follows

[
  {
    "Smi": "COc1cc(N2CCN(C3CCN(c4ccc(F)c5c(OC)cc(C(F)(F)F)nc45)CC3)CC2)c2ncccc2c1",
    "Unit abbrev": "min",
    "Comparator": "=",
    "half-life at 20 min, 1 µM": 12
  },
  {
    "Smi": "COc1cc(N2CCN(C3CCN(c4cc(Br)cc5cccnc45)CC3)CC2)c2ncccc2c1",
    "Unit abbrev": "min",
    "Comparator": "=",
    "half-life at 20 min, 1 µM": 2
  },
  {
    "Smi": "COc1cc(N2CCN(C3CCN(c4cccc5ccc(C)nc45)CC3)CC2)c2ncccc2c1",
    "Unit abbrev": "min",
    "Comparator": "<",
    "half-life at 20 min, 1 µM": 1
  },
  {
    "Smi": "COc1cc(N2CCN(C3CCN(c4cccc5cc(C(F)(F)F)cnc45)CC3)CC2)c2ncccc2c1",
    "Unit abbrev": "min",
    "Comparator": "=",
    "half-life at 20 min, 1 µM": 4
  }
]

* * *

# Experiment: AUC in Sprague-Dawley rat at 3 mg/kg, po administered as single dose by LC/MS/MS analysis
# Type: ADME, organism-based, Plasma
# Design: dose 3 mg/kg, route oral
# Assay context: Sprague-Dawley, plasma
Measured endpoint: AUC (ng·h/mL)

[
  {
    "Smi": "COc1cc(N2CCN(C3CCN(c4ccc(F)c5c(OC)cc(C(F)(F)F)nc45)CC3)CC2)c2ncccc2c1",
    "Reading": 3760
  },
  {
    "Smi": "COc1cc(N2CCN(C3CCN(c4cccc5cccnc45)CC3)CC2)c2ncccc2c1",
    "Reading": 360
  }
]
